molecular target: Sfp (Bacillus spizizenii, UniProt G4NQW2); assay: Carrier protein (CoA) competition assay with Sfp; assay type: biochemical, B. subtilis subsp. spizizenii ATCC6633; conditions: competition with BpsA for limited CoA (250 nM), read-out: IC50 for carrier protein mediated inhibition of BpsA activation
Sequence (G4NQW2 entry or part of it): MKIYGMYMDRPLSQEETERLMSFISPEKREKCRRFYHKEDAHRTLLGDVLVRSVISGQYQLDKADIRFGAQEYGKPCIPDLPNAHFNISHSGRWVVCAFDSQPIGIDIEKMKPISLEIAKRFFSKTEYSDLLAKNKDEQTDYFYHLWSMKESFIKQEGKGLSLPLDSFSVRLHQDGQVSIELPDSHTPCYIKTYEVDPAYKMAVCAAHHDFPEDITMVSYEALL
quantity kind: IC50 (µM)
A number alone suffices; assume µM.

Input: Tell me its IC50 given The peptide carrier protein of BpsA (bPCP), purified recombinant His6 tagged (protein) FVAPRTETEKEIAAVWEKALRRENASVQDDFFESGGNSLIAVGLVRELNARLGVSLPLQSVLESPTIEKLARRLE as the entry.
Output: 0.72
